Hey, just so you know, these numbers are from patent EP4610267A1.

Molecular target: T1, TROP2 (UniProt P09758 27-323, limits assumed)
T1 sequence (looked up): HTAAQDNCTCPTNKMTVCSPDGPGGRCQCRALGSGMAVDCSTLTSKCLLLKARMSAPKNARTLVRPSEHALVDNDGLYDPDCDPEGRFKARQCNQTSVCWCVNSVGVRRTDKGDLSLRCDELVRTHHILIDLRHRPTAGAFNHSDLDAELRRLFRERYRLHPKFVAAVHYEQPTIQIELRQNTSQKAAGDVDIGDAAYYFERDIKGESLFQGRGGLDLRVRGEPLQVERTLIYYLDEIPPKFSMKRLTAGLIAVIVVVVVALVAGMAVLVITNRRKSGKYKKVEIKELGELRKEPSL
Assay: cell-based or functional assay
MEASURE: HCC1954 IP10 EC50 (nM)
# value in nM; strip the unit string

[Q] Entry anti-TROP2 mAb5 (Sacituzumab, heavy chain S375C, light chain V110C) conjugated with Compound 3.13 (antibody, human IgG1, V domains shown, Compound 3.13 on engineered C110 (EU numbering); Compound 3.13 on engineered C375 (EU numbering); DAR 3.3 for the whole antibody) VH: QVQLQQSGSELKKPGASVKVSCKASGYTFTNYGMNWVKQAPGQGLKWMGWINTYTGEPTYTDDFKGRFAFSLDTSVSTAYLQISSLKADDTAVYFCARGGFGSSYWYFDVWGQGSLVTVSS VL: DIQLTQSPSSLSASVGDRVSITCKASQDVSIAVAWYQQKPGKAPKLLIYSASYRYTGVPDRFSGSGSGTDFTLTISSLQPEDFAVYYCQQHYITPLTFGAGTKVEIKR has what HCC1954 IP10 EC50?
[A] 2

[Q] Entry anti-TROP2 mAb5 (Sacituzumab, heavy chain S375C, light chain V110C) conjugated with Compound 3.17 (antibody, human IgG1, V domains shown, Compound 3.17 on engineered C110 (EU numbering); Compound 3.17 on engineered C375 (EU numbering); DAR 3.6 for the whole antibody) VH: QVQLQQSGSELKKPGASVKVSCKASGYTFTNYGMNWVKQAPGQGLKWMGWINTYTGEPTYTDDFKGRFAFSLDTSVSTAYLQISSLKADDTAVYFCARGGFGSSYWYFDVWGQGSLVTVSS VL: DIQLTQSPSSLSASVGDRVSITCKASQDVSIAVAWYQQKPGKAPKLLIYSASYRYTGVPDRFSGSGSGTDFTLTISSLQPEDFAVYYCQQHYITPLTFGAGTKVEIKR has what HCC1954 IP10 EC50?
[A] 8

[Q] Entry anti-TROP2 mAb5 (Sacituzumab, heavy chain S375C, light chain V110C) conjugated with Compound 3.16 (antibody, human IgG1, V domains shown, Compound 3.16 on engineered C110 (EU numbering); Compound 3.16 on engineered C375 (EU numbering); DAR 3.3 for the whole antibody) VH: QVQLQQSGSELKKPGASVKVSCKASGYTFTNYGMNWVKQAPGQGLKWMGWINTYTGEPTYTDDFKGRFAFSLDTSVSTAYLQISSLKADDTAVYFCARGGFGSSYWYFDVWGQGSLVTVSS VL: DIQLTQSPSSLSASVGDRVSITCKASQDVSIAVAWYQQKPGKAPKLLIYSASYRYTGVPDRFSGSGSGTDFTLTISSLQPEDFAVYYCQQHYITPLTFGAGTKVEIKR has what HCC1954 IP10 EC50?
[A] 5

[Q] Entry anti-TROP2 mAb5 (Sacituzumab, heavy chain S375C, light chain V110C) conjugated with Compound 3.18 (antibody, human IgG1, V domains shown, Compound 3.18 on engineered C110 (EU numbering); Compound 3.18 on engineered C375 (EU numbering); DAR 3.6 for the whole antibody) VH: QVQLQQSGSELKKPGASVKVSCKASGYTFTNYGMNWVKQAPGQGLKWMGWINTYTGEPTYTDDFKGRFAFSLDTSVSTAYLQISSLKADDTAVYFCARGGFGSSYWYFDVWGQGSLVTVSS VL: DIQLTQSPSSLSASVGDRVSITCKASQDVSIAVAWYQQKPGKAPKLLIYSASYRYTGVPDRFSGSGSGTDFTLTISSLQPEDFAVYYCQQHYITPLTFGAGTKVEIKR has what HCC1954 IP10 EC50?
[A] 6

[Q] Entry anti-TROP2 mAb5 (Sacituzumab, heavy chain S375C, light chain V110C) conjugated with Compound 3.3 (antibody, human IgG1, V domains shown, Compound 3.3 on engineered C110 (EU numbering); Compound 3.3 on engineered C375 (EU numbering); DAR 3.7 for the whole antibody) VH: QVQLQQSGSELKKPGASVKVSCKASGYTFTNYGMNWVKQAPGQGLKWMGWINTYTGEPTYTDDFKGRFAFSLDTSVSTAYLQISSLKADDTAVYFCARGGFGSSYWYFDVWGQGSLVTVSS VL: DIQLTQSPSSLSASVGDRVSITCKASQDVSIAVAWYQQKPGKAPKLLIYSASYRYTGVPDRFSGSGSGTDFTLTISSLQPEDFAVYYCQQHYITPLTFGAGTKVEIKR has what HCC1954 IP10 EC50?
[A] 8
